Reference source for all entries: patent US20230235301A1

Consider the following binders and their measured IC50, µM (HSV1 UL30+UL42); HSV-1 DNA synthesis inhibition readings.
TEST_SYSTEM: T1, HSV-1 Processivity Factor (UL42) (HSV-1 (strain KOS), UniProt P10226 1-488)
T1 sequence: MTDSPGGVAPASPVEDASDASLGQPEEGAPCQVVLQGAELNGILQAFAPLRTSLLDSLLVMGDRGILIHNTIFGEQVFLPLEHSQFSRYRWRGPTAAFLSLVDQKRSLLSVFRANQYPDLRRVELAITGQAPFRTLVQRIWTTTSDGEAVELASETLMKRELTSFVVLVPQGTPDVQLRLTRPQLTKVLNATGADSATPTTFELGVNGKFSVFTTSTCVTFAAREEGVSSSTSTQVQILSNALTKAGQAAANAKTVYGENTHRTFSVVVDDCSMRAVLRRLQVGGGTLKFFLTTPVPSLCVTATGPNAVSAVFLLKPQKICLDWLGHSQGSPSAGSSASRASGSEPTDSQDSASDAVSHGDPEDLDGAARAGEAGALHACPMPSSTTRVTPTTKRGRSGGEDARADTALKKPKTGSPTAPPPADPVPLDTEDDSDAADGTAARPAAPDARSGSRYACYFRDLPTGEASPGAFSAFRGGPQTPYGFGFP
MEASUREMENT_NOTES: cell-based or functional assay
Positions of bridges follow the written chain, without caps; N, C: chain ends. Non-standard residues stand in square brackets, D forms with d. No end group written: not given here. S5 = C=CCCC[C@](C)(N)C(=O)O
RESULT_TYPE: IC50, µM (HSV1 UL30+UL42); HSV-1 DNA synthesis inhibition (µM)

{"BINDER": "Ac-VTRR[S5]LHR[S5]FDTLA (staple 5-9) [S-pep7A]", "UNITS": "µM", "VALUE_QUALIFIER": "=", "REPORTED_MEASUREMENT": 1.7}
{"BINDER": "Ac-RTRR[S5]LHR[S5]FDTLA (staple 5-9) [S-pep7C]", "UNITS": "µM", "VALUE_QUALIFIER": "=", "REPORTED_MEASUREMENT": 1.7}
{"BINDER": "Ac-VVTRR[S5]LHR[S5]FDTLA (staple 6-10) [S-pep7B]", "UNITS": "µM", "VALUE_QUALIFIER": "=", "REPORTED_MEASUREMENT": 1}
{"BINDER": "Ac-[S5]RRM[S5]HRAFDTLA (staple 1-5) [S-pep5]", "UNITS": "µM", "VALUE_QUALIFIER": ">", "REPORTED_MEASUREMENT": 200}
{"BINDER": "Ac-[S5]TRR[S5]LHRAFDTLA (staple 1-5) [S-pep1]", "UNITS": "µM", "VALUE_QUALIFIER": "=", "REPORTED_MEASUREMENT": 12}
{"BINDER": "Ac-ETRR[S5]LHR[S5]FDTLA (staple 5-9) [S-pep7]", "UNITS": "µM", "VALUE_QUALIFIER": "=", "REPORTED_MEASUREMENT": 5.5}
